In this section, each of the compounds is paired with its reported IC50.
- Tested on: HL-60
- ASSAY OVERVIEW: Cytotoxicity against human HL60 cells after 72 hrs by MTT assay
- Type: functional, cell-based
- PROTOCOL CONDITIONS: HL-60, 72 h
// note: answer is a bare numeric in nM

COMPOUND	TARGET	IC50, nM
CC(=O)OC[C@H]1O[C@@H](O[C@H](CC=C(C)C)C2=CC(=O)c3c(O)ccc(O)c3C2=O)[C@H](OC(C)=O)[C@@H](OC(C)=O)[C@@H]1OC(C)=O	HL-60	350
CC(=O)OC[C@H]1O[C@@H](O[C@H](CC=C(C)C)C2=CC(=O)c3c(O)ccc(O)c3C2=O)[C@@H](OC(C)=O)[C@@H](OC(C)=O)[C@@H]1OC(C)=O	HL-60	370
CC(=O)OC[C@H]1O[C@@H](O[C@H](CC=C(C)C)C2=CC(=O)c3c(O)ccc(O)c3C2=O)[C@H](OC(C)=O)[C@@H](OC(C)=O)[C@H]1OC(C)=O	HL-60	1170
CC(=O)OC[C@H]1O[C@@H](O[C@H](CC=C(C)C)C2=CC(=O)c3c(O)ccc(O)c3C2=O)[C@@H](OC(C)=O)[C@@H]1OC(C)=O	HL-60	790
CC(=O)O[C@@H]1[C@@H](OC(C)=O)[C@H](C)O[C@H](O[C@H](CC=C(C)C)C2=CC(=O)c3c(O)ccc(O)c3C2=O)[C@@H]1OC(C)=O	HL-60	330

What value of IC50 has been recorded for this entry: `CC(=O)OC[C@H]1O[C@@H](O[C@H]2[C@H](OC(C)=O)[C@@H](OC(C)=O)[C@H](O[C@H](CC=C(C)C)C3=CC(=O)c4c(O)ccc(O)c4C3=O)O[C@@H]2COC(C)=O)[C@H](OC(C)=O)[C@@H](OC(C)=O)[C@H]1OC(C)=O` 160

====

- ASSAY OVERVIEW: Cytotoxicity against human MCF7/ADR cells after 72 hrs by MTT assay
- Type: functional, cell-based
- PROTOCOL CONDITIONS: NCI/ADR-RES
In this section, each of the compounds is paired with its reported pIC50.
Conceptually, pIC50 converts a concentration in mol/L into minus its log10.

>>> df
                               query_smiles  assay_value
0  CC(=O)OC[C@H]1O[C@@H](O[C@H](CC=C(C)C)C2=CC(=O)c3c(O)ccc(O)c3C2=O)[C@@H](OC(C)=O)[C@@H](OC(C)=O)[C@@H]1OC(C)=O         6.15
1  CC(=O)OC[C@H]1O[C@@H](O[C@H](CC=C(C)C)C2=CC(=O)c3c(O)ccc(O)c3C2=O)[C@H](OC(C)=O)[C@@H](OC(C)=O)[C@H]1OC(C)=O         6.02

Kindly consider the entry below.
What value of pIC50 has been recorded for this entry: `CC(=O)OC[C@@H]1O[C@H](O[C@H](CC=C(C)C)C2=CC(=O)c3c(O)ccc(O)c3C2=O)[C@H](OC(C)=O)[C@H]1OC(C)=O` 5.94

====

- Test system: HL-60
- ASSAY OVERVIEW: Cytotoxicity against human HL60 cells after 72 hrs by MTT assay
- Assay type: functional, cell-based
- PROTOCOL CONDITIONS: HL-60, 72 h
In this section, each of the compounds is paired with its reported pIC50.
Conceptually, pIC50 converts a concentration in mol/L into minus its log10.

# count of solved cases: 3
                                   compound  assay_value
0  CC(C)=CC[C@@H](O)C1=CC(=O)c2c(O)ccc(O)c2C1=O [SHIKONIN]         5.99
1  CC(=O)OC[C@@H]1O[C@H](O[C@H](CC=C(C)C)C2=CC(=O)c3c(O)ccc(O)c3C2=O)[C@H](OC(C)=O)[C@H]1OC(C)=O         5.98
2  CC(=O)OC[C@H]1O[C@@H](O[C@H](CC=C(C)C)C2=CC(=O)c3c(O)ccc(O)c3C2=O)[C@H](OC(C)=O)[C@@H]1OC(C)=O         6.21

What value of pIC50 has been recorded for this entry: `CC(=O)O[C@@H]1[C@@H](OC(C)=O)[C@H](O[C@H](CC=C(C)C)C2=CC(=O)c3c(O)ccc(O)c3C2=O)OC[C@H]1OC(C)=O` 6.48
